# target-entity: Serotonin 3 (5-HT3) receptor (Rattus norvegicus, UniProt P35563+Q9JJ16)
# protocol-details: Displacement of [3H]-Q-ICS 205-930 binding to 5-hydroxytryptamine 3 receptor recognition sites in rat brain membranes.
# Assay type: cell membranes
observation-type: pIC50
Reminder that pIC50 means the negative base-10 logarithm of the concentration expressed in mol/L.

Fill in the blank: the reported pIC50 of "CN1CCC(c2nc(-c3cn(C)c4ccccc34)no2)CC1" is ____.
7.88

Fill in the blank: the reported pIC50 of "Cn1cc(-c2noc(C3CC[N+](C)(C)CC3)n2)c2ccccc21" is ____.
7.45

Fill in the blank: the reported pIC50 of CN1CC2CCC1C(c1nc(-c3cn(C)c4ccccc34)no1)C2 (stereo in doubt; 12z) is ____.
7.07

Fill in the blank: the reported pIC50 of "CNCCc1nc(-c2cn(C)c3ccccc23)no1" is ____.
7.07

Fill in the blank: the reported pIC50 of Cn1cc(-c2nsc(C3CC4CCN3C4)n2)c2ccccc21 (stereo in doubt; 26) is ____.
7.85

Fill in the blank: the reported pIC50 of Cc1ccc2c(c1)c(-c1noc(C3CN4CCC3CC4)n1)cn2C (stereo not drawn) is ____.
6.48

Fill in the blank: the reported pIC50 of Cn1cc(-c2noc(C3CC4CCC3NC4)n2)c2ccccc21 (stereo in doubt; 12s) is ____.
7.05

Fill in the blank: the reported pIC50 of "CN1CCC=C(c2csc(-c3cn(C)c4ccccc34)n2)C1" is ____.
5.23

Next:
Fill in the blank: the reported pIC50 of Cn1cc(-c2nc(C3CN4CCC3CC4)no2)c2ccccc21 (stereo not drawn) is ____.
7.53

Fill in the blank: the reported pIC50 of C=CCn1cc(-c2noc(C3CN4CCC3CC4)n2)c2ccccc21 (stereo not drawn) is ____.
7.66

Fill in the blank: the reported pIC50 of "CN1CC=C(c2nnc(-c3cn(C)c4ccccc34)o2)CC1" is ____.
6.30

* * *

# protocol-details: pKa value of the compound
# Format: physicochemical
observation-type: pKa
Please give the numeric answer without any surrounding text.

Fill in the blank: the reported pKa of "CN1CCC=C(c2nc(-c3cn(C)c4ccccc34)no2)C1" is ____.
7.2

* * *

Listed here are compounds together with their documented pKa.
# protocol-details: pKa value of the compound.
# Format: physicochemical
Please give the numeric answer without any surrounding text.

Some compounds with known pKa results, for comparison:
Fill in the blank: the reported pKa of "CN(C)CCc1nc(-c2cn(C)c3ccccc23)no1" is ____.
7.7

Fill in the blank: the reported pKa of "CNCc1nc(-c2cn(C)c3ccccc23)no1" is ____.
6.5

Fill in the blank: the reported pKa of "CNCCc1nc(-c2cn(C)c3ccccc23)no1" is ____.
8.8

Fill in the blank: the reported pKa of "Cn1cc(-c2noc(C3=CCCNC3)n2)c2ccccc21" is ____.
7.9

Fill in the blank: the reported pKa of "CN(C)Cc1nc(-c2cn(C)c3ccccc23)no1" is ____.
5.6

Now for the compound whose pKa we want.
Fill in the blank: the reported pKa of "Cn1cc(-c2noc(CN)n2)c2ccccc21" is ____.
6.4

* * *

# target-entity: Serotonin 3 (5-HT3) receptor (Rattus norvegicus, UniProt P35563+Q9JJ16)
# Sequence (P35563 whole entry): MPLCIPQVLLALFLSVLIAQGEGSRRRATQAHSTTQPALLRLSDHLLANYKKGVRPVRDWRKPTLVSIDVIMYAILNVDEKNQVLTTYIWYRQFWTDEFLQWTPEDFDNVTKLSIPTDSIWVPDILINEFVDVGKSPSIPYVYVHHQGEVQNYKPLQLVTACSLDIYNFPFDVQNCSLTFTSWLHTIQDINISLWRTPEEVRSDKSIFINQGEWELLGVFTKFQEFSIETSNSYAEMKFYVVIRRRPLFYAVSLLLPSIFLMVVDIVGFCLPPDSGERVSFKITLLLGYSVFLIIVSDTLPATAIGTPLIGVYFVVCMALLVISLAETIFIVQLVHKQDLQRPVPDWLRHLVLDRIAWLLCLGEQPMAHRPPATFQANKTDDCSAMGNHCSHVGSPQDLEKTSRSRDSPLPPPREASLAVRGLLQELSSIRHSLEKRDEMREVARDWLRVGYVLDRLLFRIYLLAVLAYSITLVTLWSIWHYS
# Sequence (Q9JJ16 whole entry): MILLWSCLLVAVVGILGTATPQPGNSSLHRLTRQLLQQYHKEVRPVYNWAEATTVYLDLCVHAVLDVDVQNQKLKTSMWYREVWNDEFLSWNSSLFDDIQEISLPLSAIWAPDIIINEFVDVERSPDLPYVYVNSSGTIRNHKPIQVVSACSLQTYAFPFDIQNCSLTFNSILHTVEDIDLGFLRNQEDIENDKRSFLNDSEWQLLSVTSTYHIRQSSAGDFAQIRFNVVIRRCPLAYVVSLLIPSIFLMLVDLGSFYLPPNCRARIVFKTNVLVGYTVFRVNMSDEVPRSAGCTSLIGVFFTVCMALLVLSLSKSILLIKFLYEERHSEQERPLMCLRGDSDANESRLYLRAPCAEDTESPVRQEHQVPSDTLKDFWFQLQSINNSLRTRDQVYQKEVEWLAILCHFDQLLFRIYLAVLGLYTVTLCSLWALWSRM
# protocol-details: Displacement of [3H]-Q-ICS 205-930 binding to 5-hydroxytryptamine 3 receptor recognition sites in rat brain membranes.
# Assay type: cell membranes
pIC50: −log10 of the molar value.
param class (str): category from pIC50; see ranges bin A (below 7), bin B (7 to below 8), bin C (8 or more)

Using the reported pIC50, which band applies to Cn1cc(-c2nsc(C3CC4CCN3C4)n2)c2ccccc21 (stereo in doubt; 27) ?
bin B

* * *

# target-entity: Serotonin 3 (5-HT3) receptor (Rattus norvegicus, UniProt P35563+Q9JJ16)
# Sequence (P35563 whole entry): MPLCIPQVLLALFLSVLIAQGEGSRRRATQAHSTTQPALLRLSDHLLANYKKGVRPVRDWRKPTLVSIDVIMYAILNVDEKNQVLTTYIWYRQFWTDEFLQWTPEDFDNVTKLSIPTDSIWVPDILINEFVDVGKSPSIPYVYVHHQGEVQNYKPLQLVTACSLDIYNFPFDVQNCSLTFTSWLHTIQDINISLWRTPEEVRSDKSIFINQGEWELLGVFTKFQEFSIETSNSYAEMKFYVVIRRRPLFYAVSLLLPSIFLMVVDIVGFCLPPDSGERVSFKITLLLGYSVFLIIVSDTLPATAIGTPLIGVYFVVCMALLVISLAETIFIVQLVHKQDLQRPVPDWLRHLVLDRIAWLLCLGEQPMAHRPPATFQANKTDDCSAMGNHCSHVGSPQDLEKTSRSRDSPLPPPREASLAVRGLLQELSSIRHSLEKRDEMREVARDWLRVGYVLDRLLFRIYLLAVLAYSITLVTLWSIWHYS
# Sequence (Q9JJ16 whole entry): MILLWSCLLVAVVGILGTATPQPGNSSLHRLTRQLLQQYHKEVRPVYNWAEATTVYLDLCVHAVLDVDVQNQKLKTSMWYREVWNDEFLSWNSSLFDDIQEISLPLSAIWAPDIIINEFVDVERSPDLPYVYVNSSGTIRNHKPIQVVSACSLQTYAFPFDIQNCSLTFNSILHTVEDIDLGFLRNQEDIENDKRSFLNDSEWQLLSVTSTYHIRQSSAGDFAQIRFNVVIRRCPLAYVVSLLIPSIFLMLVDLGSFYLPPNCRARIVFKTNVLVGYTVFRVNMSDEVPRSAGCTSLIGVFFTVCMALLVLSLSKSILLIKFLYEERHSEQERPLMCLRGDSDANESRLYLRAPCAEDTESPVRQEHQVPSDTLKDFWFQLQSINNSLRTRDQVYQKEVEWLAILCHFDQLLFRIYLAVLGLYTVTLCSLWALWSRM
# protocol-details: Displacement of [3H]-Q-ICS 205-930 binding to 5-hydroxytryptamine 3 receptor recognition sites in rat brain membranes.
# Type: cell membranes
pIC50: −log10 of the molar value.
Kind request: treat 7 as inclusive, so pIC50 at 7 or higher is YES, anything lower is NO.

Reference set, count: 5
Determine whether measured pIC50 meets or exceeds 7 for c1ccc2c(-c3noc(C4CN5CCC4CC5)n3)c[nH]c2c1 (stereo unspecified)
YES

Determine whether measured pIC50 meets or exceeds 7 for Cn1cc(-c2noc(C3CCC[N+](C)(C)C3)n2)c2ccccc21 (stereo unspecified)
YES

Determine whether measured pIC50 meets or exceeds 7 for Cn1cc(-c2noc(C3CN4CCC3CC4)n2)c2ccccc21 (stereo unspecified)
YES

Determine whether measured pIC50 meets or exceeds 7 for CN1CCCC(c2nc(-c3cn(C)c4ccccc34)no2)C1 (stereo unspecified)
YES

Determine whether measured pIC50 meets or exceeds 7 for "CN1CCC=C(c2nc(-c3cn(C)c4ccccc34)no2)C1"
NO

Next:
Determine whether measured pIC50 meets or exceeds 7 for Cn1cc(-c2noc(CC3CN4CCC3CC4)n2)c2ccccc21 (stereo unspecified)
YES

Determine whether measured pIC50 meets or exceeds 7 for "CN(C)CCCc1nc(-c2cn(C)c3ccccc23)no1"
NO

Determine whether measured pIC50 meets or exceeds 7 for CN1C2CCC1CC(c1nc(-c3cn(C)c4ccccc34)no1)C2 (stereo unspecified)
NO

meta.source: ChEMBL document CHEMBL1125715
